// reported melting point for each item listed

Sample records with melting point:
COMPOUND | MEASURE NAME | MEASURED RESULT
O=c1ccc(-c2ccc(Cl)cc2)n[nH]1 | melting point | 175 to 176 °C
CCOC(=O)N1CCC(n2ccc3ccccc32)CC1 | melting point | 127 °C
CC(=O)Nc1cc(C(F)(F)F)cc(C(F)(F)F)c1[N+](=O)[O-] | melting point | 190 to 192 °C
CN(C)CC/C=C1/c2cc(Br)ccc2COc2ccccc21 | melting point | 91 to 100 °C
CCc1cncnc1O | melting point | 95 to 97 °C

Q. Entry under review: O=C(O)CN1C(=O)OC[C@@H]1c1ccccc1 . Reported melting point?
A. 106 to 108 °C

Q. Form field: reported melting point of CCOC(=O)c1cc2sc(N=CN(C)C)c(C#N)c2s1
A. 168 °C

Q. melting point lookup needed for CN(O)C(=O)C1CCC(C2CCCCC2)CC1 (centres undefined) , thanks.
A. 89 to 90 °C

Q. So what does the record say about melting point for CCOC(=O)c1c(C)n(Cc2ccc3ccccc3n2)c2ccc(OCc3ccc4ccccc4n3)cc12 ?
A. 162 to 163 °C

Q. Need melting point, item CCOC(=O)C1CCc2c(sc3nc(CN4C(=O)COC4=O)c(Cl)c(-c4ccc(OC)cc4)c23)C1 (centres undefined)
A. 118 to 119 °C

Q. Reported melting point for N#Cc1cc(F)c(-n2nc(C(F)(F)F)[nH]c2=O)cc1F : what is it?
A. 51 °C

Q. So what's the measured melting point for this one? CCC(OC)C(=O)Nc1ccc(C2=NNC(=O)CC2C)cc1 (centres undefined)
A. 151 to 152 °C

Q. Any idea what melting point was measured for Nc1c(Br)cc(S(=O)(=O)C(F)(F)F)cc1[N+](=O)[O-] ?
A. 147 °C

Q. Please give the measured melting point for this compound: CC1(C)CCC(C)(C)c2cc(-c3cc(C=CC(=O)O)ccc3O)c(OCc3ccc(F)cc3)cc21
A. 123 to 125 °C

====

The following compounds are shown together with reported melting point values.

Use these answered entries as a reference point.
COMPOUND | melting point
COc1ccc(-c2c(Cl)c(CN3C(=O)COC3=O)nc3sc4c(c23)CCC(C(=O)O)C4)cc1 (centres undefined) | 218 to 219 °C
CCOC(=O)c1cn(Cc2ccc(OCc3ccccc3)cc2)nc1OCc1ccc(OCc2ccccc2)cc1 | 124 to 125 °C
O=C(O)CCCc1cc(-c2ccccc2)nc2ccccc12 | 125 °C
CCCCCCCCC#CCC#CCC#CCS(=O)(=O)CC(=O)OC | 69 °C
COc1ccc(S(=O)(=O)Nc2c(Cl)ncnc2Nc2ccccc2)cc1 | 174 to 175 °C

Q. melting point for O=C1CCCC(O)=C1C(=O)Nc1ccc(Cl)cc1 ?
A. 113 to 114 °C

Q. What melting point value was documented for this compound, O=C(O)c1cc(Cl)cc(I)c1O ?
A. 160 to 163 °C

Q. What measured melting point goes with Cc1c(Cc2nc3n(-c4c(Cl)cc(Cl)cc4Cl)[nH]c(C(C)C)c-3c(=O)n2)cccc1NC(=O)CCl ?
A. 237 to 238 °C

Q. Recorded melting point for Oc1ccc(C(F)(F)C(F)(F)C(F)(F)/C=C/C(F)(F)C(F)(F)C(F)(F)c2ccc(O)cc2)cc1 , please?
A. 134 to 138 °C
